# studyTarget: E51D YPDC (Saccharomyces cerevisiae, UniProt P06169, E51D)
# Sequence (P06169 whole entry E51D): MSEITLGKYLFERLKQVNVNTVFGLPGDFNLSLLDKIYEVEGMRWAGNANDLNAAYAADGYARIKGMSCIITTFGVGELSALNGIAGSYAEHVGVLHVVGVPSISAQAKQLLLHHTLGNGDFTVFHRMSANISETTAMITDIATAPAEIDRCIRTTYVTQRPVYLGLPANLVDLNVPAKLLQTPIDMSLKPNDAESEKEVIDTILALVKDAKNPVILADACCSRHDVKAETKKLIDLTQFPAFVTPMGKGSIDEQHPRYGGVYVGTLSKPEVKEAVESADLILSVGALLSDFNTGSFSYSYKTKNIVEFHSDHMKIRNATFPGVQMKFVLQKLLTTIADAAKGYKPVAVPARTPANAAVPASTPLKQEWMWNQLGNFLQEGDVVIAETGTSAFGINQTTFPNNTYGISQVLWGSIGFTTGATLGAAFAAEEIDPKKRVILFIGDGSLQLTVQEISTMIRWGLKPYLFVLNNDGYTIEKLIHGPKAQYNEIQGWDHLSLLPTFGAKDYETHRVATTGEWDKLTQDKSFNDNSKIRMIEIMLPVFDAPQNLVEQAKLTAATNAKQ
# testMethodNotes: CD titration with propionylphosphinate
# particulars: read-out: Kd^app (IP); 1′,4′-iminopyrimidine tautomer of PPThDP, CD band at 297 nm; pH 6.0, 25 °C
valueKind: Kd (mM)
Write the answer as a number in mM, unit excluded.

IN: Missing value: Kd, E51D YPDC (Saccharomyces cerevisiae, UniProt P06169, E51D), entry CCC(=O)[PH](=O)[O-].[Na+] [PP, sodium propionylphosphinate] . Fill in?
OUT: 13.6

The reported numbers originate from paper PMC3295232.
